- System: Mycobacterium tuberculosis
- EXPERIMENT NOTES: Antitubercular activity against INH/RIF-resistant Mycobacterium tuberculosis clinical isolate M15 assessed as inhibition of bacterial growth incubated for 7 to 10 days by Alamar Blue staining based analysis
- Assay type: functional
- EXPERIMENTAL CONDITIONS: time 7-10 day
METRIC: MIC (µg/mL)
Write the number in µg/mL without appending the unit.

Examples with their reported MIC follow.
{"INPUT SMILES": "C[C@H]1c2c[nH]c3cccc(c23)S[C@H]1C(=O)O", "MIC, µg/mL": 1.56}
{"INPUT SMILES": "O=C(O)[C@H]1Cc2c[nH]c3cccc(c23)S1", "MIC, µg/mL": 0.78}
{"INPUT SMILES": "CC1(C)c2c[nH]c3cccc(c23)S[C@H]1C(=O)O", "MIC, µg/mL": 12.5}

Moving on to another compound below.
Ask | Return MIC (reported value) for this compound: NNC(=O)c1ccncc1
Reply | 4
